These measurements were taken from PubChem BioAssay (NCI).

- Tested on: TK-10 renal
- measurement-description: NCI-60 one-dose screen, 48 h (100 = growth as untreated, 0 = no growth, -100 = all killed)
- particulars: 10 µM unless noted
About 83,000 compounds went through this panel and 20% of them were active in at least one assay; those are over-represented in the sample as a whole.
measured-parameter: growth (%)
Respond numerically; units are % and should not be typed.

Asked: Data request, read-out growth, for `COc1cc(/C=C/C(=O)c2ccccc2)ccc1Oc1nc(NCCO)nc(N2CCOCC2)n1`
Given back: 124

Asked: Name the recorded growth for `CCOc1ccc2nc(NC(=O)c3ccc(C(F)(F)F)cc3)sc2c1` .
Given back: 95.4

Asked: Requested read-out: growth. Entry: `C/C(=C(/c1ccc(Cl)cc1)c1ccc(OCCN)cc1)c1ccc(C)cc1`
Given back: 116

Asked: Tell me the measured growth of `Cc1sc2c(c1C)c(=O)nc1c(-c3nc(-c4ccc(F)cc4)no3)n[nH]n12` , please.
Given back: 122

Asked: Reported growth, compound `CO/N=C1\CCc2c(sc(NC(=O)c3cccc(C(F)(F)F)c3)c2C(N)=O)C1` : ____
Given back: -17.1

Asked: Recorded growth of `COc1cc(/C=C/C(=O)c2ccc(C)cc2)ccc1Oc1nc(NCCO)nc(N2CCOCC2)n1` , please.
Given back: 125

Asked: Query: growth; subject: `O=c1[nH]c2ccc(Cl)cc2cc1CSc1ccccc1Nc1nccc(-c2ccc(Cl)cc2)n1`
Given back: 128

Asked: // query growth value for entry N#Cc1nc(-c2ccccc2)oc1N1CCC(CO)C1 (stereo not given)
Given back: 104

Asked: Please report the recorded growth for COC(=O)C(C)NS(=O)(=O)/N=C1\NC(=O)NC1=C(Cl)Cl (stereo not given) .
Given back: 140

Asked: Would you mind telling me what growth value was observed for `Cc1cc(=O)oc2cc(OCCCOc3ccc(/C=C/C(=O)Nc4ccc(Cl)cc4)cc3)ccc12` ?
Given back: 118
